Tested on: CCRIS mutagenicity, Ames/micronucleus/aberration tests
Experiment: CCRIS mutagenicity studies
Conditions: Test System: AMES SALMONELLA TYPHIMURIUM; Strain/Indicator: TA100; Metabolic Activation: NONE; Method: PREINCUBATION
The source made the active and inactive calls. The rule behind the calls is not given here.
Parameter call: string, one of y = active, n = inactive

# example entries with known answers
Nc1ccc([N+](=O)[O-])cc1O: n
CCCCCCc1ccc(O)cc1O: n
OC1C=Cc2c(ccc3c2-c2cccc4cccc-3c24)C1O (centres undefined): n

Kindly provide the recorded test outcome for the following compound: `O`
n

// outcome(item) with item = `O=C(CCl)c1ccccc1`
n

Hi, do you know how `O=C(Cl)c1ccc(Cl)cc1` came out in this test?
n

Field: outcome | Entry: `CCOc1ccc(N=Nc2ccc(-c3ccc(N=Nc4c(O)ccc5cc(S(=O)(=O)O)cc(S(=O)(=O)O)c45)c(C)c3)cc2C)cc1`
n

Outcome logged for `CCOC(=O)[C@H](CCc1ccccc1)N[C@@H](C)C(=O)N1[C@H](C(=O)O)C[C@H]2CCCC[C@@H]21` in this assay:
n

Which result was noted for this compound in the test: `O=C(Cl)c1cccc(Cl)c1`
n

// outcome(item) with item = `CNC(=C[N+](=O)[O-])NCCSCc1ccc(CN(C)C)o1`
n

Could you please tell me the result logged for `Cc1ccc2ncccc2c1` in this assay?
n

For `CCCCN(N=O)C(N)=O` , which call appears in the assay record?
y

Write down the call the test reported for this compound. Item: `C1CCNC1`
n

Please let me know the test result on file for CN(CC(O)CO)N=O (centres undefined) .
n

---

Test system: CCRIS mutagenicity, Ames/micronucleus/aberration tests
Experiment: CCRIS mutagenicity studies
Details: Test System: AMES SALMONELLA TYPHIMURIUM; Strain/Indicator: TA98; Metabolic Activation: HAMSTER, LIVER, S-9, AROCLOR 1254; Method: STANDARD PLATE
The source made the active and inactive calls. No rule for the calls is given here.
Select the matching outcome among True (active), False (inactive)

Before answering, review these 10 worked examples.
CC1(C)C(=O)[C@]2(C)CC[C@H]1C2: False
Cc1ccc(S(=O)(=O)NN)cc1: False
Cc1ccccc1Cl: False
CC1=CC(=O)CC(C)(C)C1: False
N#CSCSC#N: False
O=c1c(O)c(-c2ccc(O)cc2)oc2cc(O)cc(O)c12: True
O=c1[nH]c2ccccc2o1: False
O=C(O)/C=C/c1ccccc1: False
c1cnccn1: False
Clc1nnc(Cl)c2ccccc12: False

Per the records of this test, what outcome belongs to `CC(=O)Nc1ccc(S(=O)(=O)O)c2cc(S(=O)(=O)O)c(N=Nc3ccc(N=Nc4ccc(S(=O)(=O)O)cc4)c4ccc(S(=O)(=O)O)cc34)c(O)c12` ?
False

What call does the record list for `CC/C(=C(\c1ccccc1)c1ccc(OCCN(C)C)cc1)c1ccccc1` ?
False

# outcome recorded in this test, key = `OC/C=C/c1ccccc1`
False

Each molecule tested received a call. Report the one for `c1ccc(-c2ccc(-c3ccccc3)cc2)cc1` .
False

---

System: CCRIS mutagenicity, Ames/micronucleus/aberration tests
Experiment: CCRIS mutagenicity studies
Conditions: Test System: AMES SALMONELLA TYPHIMURIUM; Strain/Indicator: TA98; Metabolic Activation: NONE; Method: SUSPENSION/PLATE
The source made the active and inactive calls. How the calls were made is not given here.
measuredMetric: mutagenic call

Cc1ccc(NO)cc1[N+](=O)[O-]: inactive; negative
Cc1ccc(N=Nc2ccc(C)c(N)c2)cc1N: inactive; negative
[CH3][Sn]([CH3])([CH3])[CH3]: inactive; negative
Cc1ccc([N+](=O)[O-])cc1N=O: inactive; negative
[Cl][Sn]([Cl])([Cl])[c]1ccccc1: inactive; negative

I'm curious: which mutagenic call was measured for `Cc1ccc(N=[N+]([O-])c2ccc(C)c([N+](=O)[O-])c2)cc1[N+](=O)[O-]` tested on CCRIS mutagenicity, Ames/micronucleus/aberration tests?
inactive; negative

Under CCRIS mutagenicity, Ames/micronucleus/aberration tests: mutagenic call value of `CC(=O)N(C(C)=O)c1cc(N=Nc2ccc(C)cc2)ccc1C` ?
inactive; negative
